Values were extracted from patent US20220064322A1.

EC50 (read off the curve) values, listed per item
# test system: T1, human CD73 ecto-domain recombinant protein (huCD73) (human, UniProt P21589 27-547)
# T1 construct: also called soluble huCD73; soluble recombinant CD73
# T1 sequence: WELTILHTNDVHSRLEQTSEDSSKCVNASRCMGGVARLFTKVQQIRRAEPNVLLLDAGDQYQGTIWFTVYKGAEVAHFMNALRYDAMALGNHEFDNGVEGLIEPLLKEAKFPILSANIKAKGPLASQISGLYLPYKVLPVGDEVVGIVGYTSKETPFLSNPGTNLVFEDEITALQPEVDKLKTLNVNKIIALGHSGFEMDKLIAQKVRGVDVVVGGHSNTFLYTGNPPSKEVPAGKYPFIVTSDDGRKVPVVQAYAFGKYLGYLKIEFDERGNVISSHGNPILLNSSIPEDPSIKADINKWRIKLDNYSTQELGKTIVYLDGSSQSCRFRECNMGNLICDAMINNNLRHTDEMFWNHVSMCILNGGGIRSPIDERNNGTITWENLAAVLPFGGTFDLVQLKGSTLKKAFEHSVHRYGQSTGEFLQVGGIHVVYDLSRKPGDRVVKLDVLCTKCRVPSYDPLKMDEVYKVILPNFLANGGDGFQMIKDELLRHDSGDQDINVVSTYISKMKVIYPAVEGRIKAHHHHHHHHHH
# experiment summary: indirect ELISA, plate coated with 1 ug/ml huCD73 recombinant protein, HRP-labelled secondary antibody, RFU

binder	EC50 (read off the curve)
JB24H3L2 (antibody, human IgG1, kappa, V domains shown, Humanized antibody of JB24Chi, human IgG1 / kappa) VH: QVQLVQSGAEVKKPGASVKMSCKASGYTFTDYNMHWVKQSHGKSLEWIGYIKPHNAGTTYNPKFEGRATLTVDTSASTAYMELRSLRSEDTAVYYCVRSDFLYWYFDVWGQGTTVTVSS VL: DIQMTQSPSSLSASVGDRVTITCTASSSVSSSYLHWYQQKPGSAPKLWIYSTSNLASGVPSRFSGSGSGTDYTLTISSLQPEDFATYYCHQYHRSPLTFGAGTKLEIKR	~0.2 µg/mL
JB24Chi (antibody, human IgG1, kappa, V domains shown, Phage antibody, chimeric human IgG1 / human kappa full chains) VH: QVQLQQSGLELVKPGASVKMSCKASGYTFTDYNMHWVKQSHGKSLEWIGYIKPHNGGTTYNPKFEGKATLTVNKSSSTAYMELRSLTSEDSAVYYCVRCDFLYWYFDVWGTGTTVTVSS VL: DIVMTQSPAIMSASLGERVTMTCTASSSVSSSYLHWYQQKPGSSPKLWIYSTSNLASGVPGRFSGSGSGTSYSLTISSMEAEDAATYYCHQYHRSPLTFGAGTKLEMKR	~0.1 µg/mL
JB24H3L3 (antibody, human IgG1, kappa, V domains shown, Humanized antibody of JB24Chi, human IgG1 / kappa) VH: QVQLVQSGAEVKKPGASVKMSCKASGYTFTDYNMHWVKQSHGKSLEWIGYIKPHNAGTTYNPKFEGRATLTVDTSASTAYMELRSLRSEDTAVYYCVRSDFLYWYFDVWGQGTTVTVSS VL: DIVMTQSPSSLSASVGDRVTITCTASSSVSSSYLHWYQQKPGSSPKLWIYSTSNLASGVPGRFSGSGSGTDYTLTISSLQPEDFATYYCHQYHRSPLTFGAGTKLEIKR	~0.2 µg/mL
